- System: NCI-H727
- Assay notes: relative viability (nuclei count vs DMSO), 5 days (fraction); higher = more cells survive
- Condition summary: first compound 0.8 µM
Assign relative viability to each entry below.
Could you respond with only the numeric value?

q: Give the reported value of relative viability for this record: Oc1nc(-c2ccc(C(F)(F)F)cc2)nc2c1CSCC2 [XAV939] + COc1cc2c(Oc3ccc(NC(=O)C4(C(=O)Nc5ccc(F)cc5)CC4)cc3F)ccnc2cc1OCCCN1CCOCC1 [Foretinib] (partner 0.25 µM)
a: 0.821

q: Give the reported value of relative viability for this record: Oc1nc(-c2ccc(C(F)(F)F)cc2)nc2c1CSCC2 [XAV939] + CC(=O)c1c(C)c2cnc(Nc3ccc(N4CCNCC4)cn3)nc2n(C2CCCC2)c1=O [Palbociclib] (partner 0.5 µM)
a: 0.642

q: Give the reported value of relative viability for this record: C=C1C(=O)O[C@@H](CCCCCCCC)[C@@H]1C(=O)O [C-75] + CC(=O)Nc1cccc(-n2c(=O)n(C3CC3)c(=O)c3c(Nc4ccc(I)cc4F)n(C)c(=O)c(C)c32)c1 [Trametinib] (partner 0.02 µM)
a: 0.448

q: Give the reported value of relative viability for this record: Oc1nc(-c2ccc(C(F)(F)F)cc2)nc2c1CSCC2 [XAV939] + Cc1nc(NC(=O)N2CCC[C@H]2C(N)=O)sc1-c1ccnc(C(C)(C)C(F)(F)F)c1 [Alpelisib] (partner 2 µM)
a: 0.626

q: Give the reported value of relative viability for this record: C=C1C(=O)O[C@@H](CCCCCCCC)[C@@H]1C(=O)O [C-75] + Cc1cc(Nc2cc(N3CCN(C)CC3)nc(Sc3ccc(NC(=O)C4CC4)cc3)n2)n[nH]1 [Tozasertib] (partner 0.1 µM)
a: 0.559

---

- Tested on: NCI-H647
- Assay notes: relative viability (nuclei count vs DMSO), 5 days (fraction); higher = more cells survive
- Condition summary: first compound 0.1 µM
Label TRUE when relative viability is strictly below 1; at or above that, label FALSE.

q: Criterion: relative viability strictly below 1. Is it met by NC(=O)Nc1cc(-c2cccc(F)c2)sc1C(=O)N[C@H]1CCCNC1 [AZD7762] + C[C@@H](Oc1cc(-c2cnn(C3CCNCC3)c2)cnc1N)c1c(Cl)ccc(F)c1Cl [Crizotinib] (partner 1 µM) ?
a: TRUE

q: Criterion: relative viability strictly below 1. Is it met by NC(=O)Nc1cc(-c2cccc(F)c2)sc1C(=O)N[C@H]1CCCNC1 [AZD7762] + Cc1nc(NC(=O)N2CCC[C@H]2C(N)=O)sc1-c1ccnc(C(C)(C)C(F)(F)F)c1 [Alpelisib] (partner 2 µM) ?
a: FALSE

q: Criterion: relative viability strictly below 1. Is it met by NC(=O)Nc1cc(-c2cccc(F)c2)sc1C(=O)N[C@H]1CCCNC1 [AZD7762] + Nc1nc2[nH]cc(CCc3ccc(C(=O)N[C@@H](CCC(=O)O)C(=O)O)cc3)c2c(=O)[nH]1 [Pemetrexed] (partner 0.2 µM) ?
a: TRUE

q: Criterion: relative viability strictly below 1. Is it met by NC(=O)Nc1cc(-c2cccc(F)c2)sc1C(=O)N[C@H]1CCCNC1 [AZD7762] + CC1(C)CCC(c2ccc(Cl)cc2)=C(CN2CCN(c3ccc(C(=O)NS(=O)(=O)c4ccc(N[C@H](CCN5CCOCC5)CSc5ccccc5)c(S(=O)(=O)C(F)(F)F)c4)cc3)CC2)C1 [Navitoclax] (partner 0.5 µM) ?
a: TRUE

q: Criterion: relative viability strictly below 1. Is it met by NC(=O)Nc1cc(-c2cccc(F)c2)sc1C(=O)N[C@H]1CCCNC1 [AZD7762] + CS(=O)(=O)CCNCc1ccc(-c2ccc3ncnc(Nc4ccc(OCc5cccc(F)c5)c(Cl)c4)c3c2)o1 [Lapatinib] (partner 2 µM) ?
a: TRUE

---

- Test system: NCI-H1650
- Assay notes: relative viability (nuclei count vs DMSO), 5 days (fraction); higher = more cells survive
- Condition summary: first compound 0.005 µM
Label True when relative viability is strictly below 0.5; at or above that, label False.

q: Criterion: relative viability strictly below 0.5. Is it met by CC1(C)CCC(c2ccc(Cl)cc2)=C(CN2CCN(c3ccc(C(=O)NS(=O)(=O)c4ccc(N[C@H](CCN5CCOCC5)CSc5ccccc5)c(S(=O)(=O)C(F)(F)F)c4)cc3)CC2)C1 [Navitoclax] + Cc1cc(Nc2cc(N3CCN(C)CC3)nc(Sc3ccc(NC(=O)C4CC4)cc3)n2)n[nH]1 [Tozasertib] (partner 0.1 µM) ?
a: True

q: Criterion: relative viability strictly below 0.5. Is it met by CC1(C)CCC(c2ccc(Cl)cc2)=C(CN2CCN(c3ccc(C(=O)NS(=O)(=O)c4ccc(N[C@H](CCN5CCOCC5)CSc5ccccc5)c(S(=O)(=O)C(F)(F)F)c4)cc3)CC2)C1 [Navitoclax] + Nc1ncn([C@H]2C[C@H](O)[C@@H](CO)O2)c(=O)n1 [Decitabine] (partner 2 µM) ?
a: True

q: Criterion: relative viability strictly below 0.5. Is it met by CC1(C)CCC(c2ccc(Cl)cc2)=C(CN2CCN(c3ccc(C(=O)NS(=O)(=O)c4ccc(N[C@H](CCN5CCOCC5)CSc5ccccc5)c(S(=O)(=O)C(F)(F)F)c4)cc3)CC2)C1 [Navitoclax] + COc1cc2c(Oc3ccc(NC(=O)C4(C(=O)Nc5ccc(F)cc5)CC4)cc3F)ccnc2cc1OCCCN1CCOCC1 [Foretinib] (partner 0.25 µM) ?
a: False

q: Criterion: relative viability strictly below 0.5. Is it met by CC1(C)CCC(c2ccc(Cl)cc2)=C(CN2CCN(c3ccc(C(=O)NS(=O)(=O)c4ccc(N[C@H](CCN5CCOCC5)CSc5ccccc5)c(S(=O)(=O)C(F)(F)F)c4)cc3)CC2)C1 [Navitoclax] + C[C@@H](Oc1cc(-c2cnn(C3CCNCC3)c2)cnc1N)c1c(Cl)ccc(F)c1Cl [Crizotinib] (partner 1 µM) ?
a: False

q: Criterion: relative viability strictly below 0.5. Is it met by CC1(C)CCC(c2ccc(Cl)cc2)=C(CN2CCN(c3ccc(C(=O)NS(=O)(=O)c4ccc(N[C@H](CCN5CCOCC5)CSc5ccccc5)c(S(=O)(=O)C(F)(F)F)c4)cc3)CC2)C1 [Navitoclax] + N=C(N)NC(=N)NCCc1ccccc1 [Phenformin] (partner 250 µM) ?
a: True

---

Assign relative viability to each entry below.
- Test system: NCI-H2023
- Assay notes: relative viability (nuclei count vs DMSO), 5 days (fraction); higher = more cells survive
- Condition summary: first compound 0.8 µM
Could you respond with only the numeric value?

q: Give the reported value of relative viability for this record: Oc1nc(-c2ccc(C(F)(F)F)cc2)nc2c1CSCC2 [XAV939] + C[C@]1(O)C[C@@H](c2nc(-c3ccc4ccc(-c5ccccc5)nc4c3)c3c(N)nccn32)C1 [Linsitinib] (partner 1 µM)
a: 0.625

q: Give the reported value of relative viability for this record: Oc1nc(-c2ccc(C(F)(F)F)cc2)nc2c1CSCC2 [XAV939] + O=C(c1cc(Cc2n[nH]c(=O)c3ccccc23)ccc1F)N1CCN(C(=O)C2CC2)CC1 [Olaparib] (partner 8 µM)
a: 0.463

q: Give the reported value of relative viability for this record: Oc1nc(-c2ccc(C(F)(F)F)cc2)nc2c1CSCC2 [XAV939] + Cc1cc(Nc2cc(N3CCN(C)CC3)nc(Sc3ccc(NC(=O)C4CC4)cc3)n2)n[nH]1 [Tozasertib] (partner 0.1 µM)
a: 0.278

q: Give the reported value of relative viability for this record: C=C1C(=O)O[C@@H](CCCCCCCC)[C@@H]1C(=O)O [C-75] + O=C(CCCCCCC(=O)Nc1ccccc1)NO [Vorinostat] (partner 1 µM)
a: 0.604

q: Give the reported value of relative viability for this record: C=C1C(=O)O[C@@H](CCCCCCCC)[C@@H]1C(=O)O [C-75] + Cc1cc(Nc2cc(N3CCN(C)CC3)nc(Sc3ccc(NC(=O)C4CC4)cc3)n2)n[nH]1 [Tozasertib] (partner 0.1 µM)
a: 0.302

q: Give the reported value of relative viability for this record: Oc1nc(-c2ccc(C(F)(F)F)cc2)nc2c1CSCC2 [XAV939] + CC(=O)c1c(C)c2cnc(Nc3ccc(N4CCNCC4)cn3)nc2n(C2CCCC2)c1=O [Palbociclib] (partner 0.5 µM)
a: 0.328

q: Give the reported value of relative viability for this record: C=C1C(=O)O[C@@H](CCCCCCCC)[C@@H]1C(=O)O [C-75] + C[C@]1(O)C[C@@H](c2nc(-c3ccc4ccc(-c5ccccc5)nc4c3)c3c(N)nccn32)C1 [Linsitinib] (partner 1 µM)
a: 0.473

---

- System: NCI-H650
- Assay notes: relative viability (nuclei count vs DMSO), 5 days (fraction); higher = more cells survive
- Condition summary: first compound 0.253 µM
Measured quantity: relative viability
Could you respond with only the numeric value?

q: Give the reported value of relative viability for this record: C=C1C(=O)O[C@@H](CCCCCCCC)[C@@H]1C(=O)O [C-75] + NC(=O)Nc1cc(-c2cccc(F)c2)sc1C(=O)N[C@H]1CCCNC1 [AZD7762] (partner 0.2 µM)
a: 0.796

q: Give the reported value of relative viability for this record: C=C1C(=O)O[C@@H](CCCCCCCC)[C@@H]1C(=O)O [C-75] + CS(=O)(=O)CCNCc1ccc(-c2ccc3ncnc(Nc4ccc(OCc5cccc(F)c5)c(Cl)c4)c3c2)o1 [Lapatinib] (partner 2 µM)
a: 0.86

q: Give the reported value of relative viability for this record: Oc1nc(-c2ccc(C(F)(F)F)cc2)nc2c1CSCC2 [XAV939] + O=C(c1cc(Cc2n[nH]c(=O)c3ccccc23)ccc1F)N1CCN(C(=O)C2CC2)CC1 [Olaparib] (partner 8 µM)
a: 0.426

q: Give the reported value of relative viability for this record: C=C1C(=O)O[C@@H](CCCCCCCC)[C@@H]1C(=O)O [C-75] + C[C@@H](Oc1cc(-c2cnn(C3CCNCC3)c2)cnc1N)c1c(Cl)ccc(F)c1Cl [Crizotinib] (partner 1 µM)
a: 0.72
